Hi there, I'd appreciate the recorded Viability % for every entry that follows.
Tested on: MCF7 cell line
protocol details: In vitro cytotoxic activity, MTT method, MCF7
Type: cell-based, human
protocol conditions: MCF7, 12.5 µMol
Use % as the unit, but write only the number.

Ask | Complete the entry with Viability % for CC(=O)C1C(c2ccc(N(C)C)cc2)c2c(C)nc(SCC#N)c(C#N)c2CC1(C)O (stereo not drawn)
Reply | 2.859

Ask | Using known records, supply Viability % for CC(=O)C1C(c2ccc(N(C)C)cc2)c2c(C)nc(SCC(=O)Nc3ccccc3)c(C#N)c2CC1(C)O (stereo not drawn)
Reply | 8.047

Ask | Please supply the value of reported Viability % for the item CC(=O)c1ccc(NC(=O)CSc2nc(C)c3c(c2C#N)CC(C)(O)C(C(C)=O)C3c2ccc(N(C)C)cc2)cc1 (stereo not drawn)
Reply | 3.35

====

Kindly supply the reported Viability % values for the records listed here.
Tested on: MCF7 cell line
protocol details: In vitro cytotoxic activity, MTT method, MCF7
Format: cell-based, human
protocol conditions: MCF7, 0.781 µMol

Ask | Specify Viability % for CCOC(=O)CSc1nc(C)c2c(c1C#N)CC(C)(O)C(C(C)=O)C2c1ccc(N(C)C)cc1 (stereo not drawn) and stop.
Reply | 92.08%

Ask | Consider the compound CSc1nc(C)c2c(c1C#N)CC(C)(O)C(C(C)=O)C2c1ccc(N(C)C)cc1 (stereo not drawn) and give its recorded Viability %.
Reply | 33.25%

Ask | Consider the compound COc1cccc2c1C(=O)c1c(O)c3c(c(O)c1C2=O)C[C@@](O)(C(=O)CO)C[C@@H]3O[C@H]1C[C@H](N)[C@H](O)[C@H](C)O1 [Doxorubicin, reference compound] and give its recorded Viability %.
Reply | 26.44%

====

Tested on: MCF7 cell line
protocol details: In vitro cytotoxic activity, MTT method, MCF7
Type: cell-based, human
protocol conditions: MCF7, Conc. 12.5 µMol
parameter: Toxicity % (%)
Give the number; % is assumed, so skip it.

Ask | # return Toxicity % for CC(=O)C1C(c2ccc(N(C)C)cc2)c2c(C)nc3sc(C(=O)Nc4ccccc4)c(N)c3c2CC1(C)O (stereo not shown) , test system: MCF7 cell line
Reply | 96.9

Ask | Enter Toxicity % (test system MCF7 cell line) for CC(=O)C1C(c2ccc(N(C)C)cc2)c2c(C)nc3sc(C(=O)Nc4ccc(Cl)cc4)c(N)c3c2CC1(C)O (stereo not shown)
Reply | 97.1

Ask | Return reported Toxicity % for target or system MCF7 cell line, item CC(=O)C1C(c2ccc(N(C)C)cc2)c2c(C)nc3sc(C(=O)Nc4ccc(C)cc4)c(N)c3c2CC1(C)O (stereo not shown) .
Reply | 88.07

Ask | Find the measured Toxicity % of CC(=O)c1ccc(NC(=O)c2sc3nc(C)c4c(c3c2N)CC(C)(O)C(C(C)=O)C4c2ccc(N(C)C)cc2)cc1 (stereo not shown) with MCF7 cell line as test system.
Reply | 97.06

====

Test system: A549 cell line
protocol details: In vitro cytotoxic activity, MTT method, A549
protocol conditions: A549, Conc. 0.195 µMol
Assign Viability % to each entry below.
// return numeric value only (unit: %, not printed)

Ask | Check the records and state Viability % for CC(=O)C1C(c2ccc(N(C)C)cc2)c2c(C)nc(SCC(=O)Nc3ccc(C)cc3)c(C#N)c2CC1(C)O (centres unmarked)
Reply | 99.49

Ask | Consider the compound CC(=O)C1C(c2ccc(N(C)C)cc2)c2c(C)nc(SCC(=O)Nc3ccc(Cl)cc3)c(C#N)c2CC1(C)O (centres unmarked) and give its recorded Viability %.
Reply | 93.81

Ask | Provide measured Viability % value, entry: CC(=O)C1C(c2ccc(N(C)C)cc2)c2c(C)[nH]c(=S)c(C#N)c2CC1(C)O (centres unmarked)
Reply | 97

Ask | Identify Viability % associated with the compound CC(=O)C1C(c2ccc(N(C)C)cc2)c2c(C)nc3sc(C(=O)Nc4ccc(C)cc4)c(N)c3c2CC1(C)O (centres unmarked)
Reply | 87.42

Ask | Entry CC(=O)C1C(c2ccc(N(C)C)cc2)c2c(C)nc(SCC(N)=O)c(C#N)c2CC1(C)O (centres unmarked) needs its Viability % filled in; supply it.
Reply | 99.68

Ask | Give recorded Viability %. CC(=O)c1ccc(NC(=O)CSc2nc(C)c3c(c2C#N)CC(C)(O)C(C(C)=O)C3c2ccc(N(C)C)cc2)cc1 (centres unmarked)
Reply | 96.29

Ask | Hello, please tell me recorded Viability % for this one: CC(=O)C1C(c2ccc(N(C)C)cc2)c2c(C)nc3sc(C(=O)Nc4ccc(Cl)cc4)c(N)c3c2CC1(C)O (centres unmarked)
Reply | 81.26

Ask | Return value of Viability % for input CSc1nc(C)c2c(c1C#N)CC(C)(O)C(C(C)=O)C2c1ccc(N(C)C)cc1 (centres unmarked) , no commentary.
Reply | 99.21

Ask | Give recorded Viability %. CC(=O)c1ccc(NC(=O)c2sc3nc(C)c4c(c3c2N)CC(C)(O)C(C(C)=O)C4c2ccc(N(C)C)cc2)cc1 (centres unmarked)
Reply | 80.83

Ask | Please report Viability % for the following compound: CC(=O)C1C(c2ccc(N(C)C)cc2)c2c(C)nc(SCC#N)c(C#N)c2CC1(C)O (centres unmarked)
Reply | 99.37

Ask | Return Viability % (reported value) for this compound: COc1cccc2c1C(=O)c1c(O)c3c(c(O)c1C2=O)C[C@@](O)(C(=O)CO)C[C@@H]3O[C@H]1C[C@H](N)[C@H](O)[C@H](C)O1
Reply | 63.67

Ask | Return Viability % (reported value) for this compound: CC(=O)C1C(c2ccc(N(C)C)cc2)c2c(C)nc3sc(C(=O)Nc4ccccc4)c(N)c3c2CC1(C)O (centres unmarked)
Reply | 95.78

Ask | Provide measured Viability % value, entry: CCOC(=O)CSc1nc(C)c2c(c1C#N)CC(C)(O)C(C(C)=O)C2c1ccc(N(C)C)cc1 (centres unmarked)
Reply | 96.06

Ask | // fetch Viability % given entry CC(=O)C1C(c2ccc(N(C)C)cc2)c2c(C)nc(SCC(=O)Nc3ccccc3)c(C#N)c2CC1(C)O (centres unmarked)
Reply | 99.83

====

Could you please report measured Viability % for the items listed next?
Test system: MCF7 cell line
protocol details: In vitro cytotoxic activity, MTT method, MCF7
Format: cell-based, human
protocol conditions: MCF7, 0.781 µMol
Enter your answer as a number in %; do not include the unit.

Ask | Fill in reported Viability % for this entry: CC(=O)C1C(c2ccc(N(C)C)cc2)c2c(C)nc(SCC(=O)Nc3ccc(C)cc3)c(C#N)c2CC1(C)O (stereo not shown)
Reply | 25.08

Ask | Supply recorded Viability % for CC(=O)C1C(c2ccc(N(C)C)cc2)c2c(C)[nH]c(=S)c(C#N)c2CC1(C)O (stereo not shown) here.
Reply | 76.47

Ask | Name the recorded Viability % of the compound listed here: CC(=O)C1C(c2ccc(N(C)C)cc2)c2c(C)nc(SCC(=O)Nc3ccccc3)c(C#N)c2CC1(C)O (stereo not shown)
Reply | 76.88

Ask | Provide Viability % value for the following compound: CC(=O)C1C(c2ccc(N(C)C)cc2)c2c(C)nc(SCC(N)=O)c(C#N)c2CC1(C)O (stereo not shown)
Reply | 64.54

Ask | For the compound CC(=O)C1C(c2ccc(N(C)C)cc2)c2c(C)nc(SCC#N)c(C#N)c2CC1(C)O (stereo not shown) , give its reported Viability %.
Reply | 29.29

Ask | Please list Viability % recorded for the compound CC(=O)c1ccc(NC(=O)CSc2nc(C)c3c(c2C#N)CC(C)(O)C(C(C)=O)C3c2ccc(N(C)C)cc2)cc1 (stereo not shown)
Reply | 47.47

Ask | Entry CC(=O)C1C(c2ccc(N(C)C)cc2)c2c(C)nc(SCC(=O)Nc3ccc(Cl)cc3)c(C#N)c2CC1(C)O (stereo not shown) needs its Viability % filled in; supply it.
Reply | 91.67

====

Assign Viability % to each entry below.
Tested on: A549 cell line
protocol details: In vitro cytotoxic activity, MTT method, A549
protocol conditions: A549, Conc. 0.0975 µMol
Dear colleague, please return just the value in %, with no unit written.

Ask | Hello, please tell me recorded Viability % for this one: CC(=O)C1C(c2ccc(N(C)C)cc2)c2c(C)nc(SCC(N)=O)c(C#N)c2CC1(C)O (stereo not drawn) [Compound 5]
Reply | 99.87

Ask | Supply recorded Viability % for CC(=O)C1C(c2ccc(N(C)C)cc2)c2c(C)[nH]c(=S)c(C#N)c2CC1(C)O (stereo not drawn) [Compound 1] here.
Reply | 98.2

Ask | Give recorded Viability %. CCOC(=O)CSc1nc(C)c2c(c1C#N)CC(C)(O)C(C(C)=O)C2c1ccc(N(C)C)cc1 (stereo not drawn) [Compound 4]
Reply | 98

====

System: MCF7 cell line
protocol details: In vitro cytotoxic activity, MTT method, MCF7
Type: cell-based, human
protocol conditions: MCF7, 0.0975 µMol
Experimental: Cell lines: The in vitro human breast cancerous cell line (MCF7), lung cancerous cell lines (A549) and normal cell lines were purchased from Serum and Vaccine formulation in Cairo-Egypt. In vitro cytotoxic activity of all synthesized compounds against two human breast cell line (MCF7) and lung cell lines (A549) was evaluated according to the MTT method. […] Finally read the optical density at 560 nm and subtract background at 620 nm. […]
Provide the reported Viability % of each item.
Dear colleague, please send the value followed by its unit.

Ask | Hello, please tell me recorded Viability % for this one: CCOC(=O)CSc1nc(C)c2c(c1C#N)CC(C)(O)C(C(C)=O)C2c1ccc(N(C)C)cc1 (stereo not drawn)
Reply | 99.94%

Ask | Assign Viability % to the following record: CC(=O)C1C(c2ccc(N(C)C)cc2)c2c(C)nc(SCC(=O)Nc3ccc(C)cc3)c(C#N)c2CC1(C)O (stereo not drawn)
Reply | 93.77%

Ask | Answer with reported Viability % of CSc1nc(C)c2c(c1C#N)CC(C)(O)C(C(C)=O)C2c1ccc(N(C)C)cc1 (stereo not drawn)
Reply | 92.876%

Ask | Read the entry CC(=O)C1C(c2ccc(N(C)C)cc2)c2c(C)[nH]c(=S)c(C#N)c2CC1(C)O (stereo not drawn) and write its reported Viability %.
Reply | 99.68%

Ask | Could you please provide reported Viability % for CC(=O)C1C(c2ccc(N(C)C)cc2)c2c(C)nc(SCC(=O)Nc3ccc(Cl)cc3)c(C#N)c2CC1(C)O (stereo not drawn) ? Thanks!
Reply | 100.6%

Ask | Return Viability % for the following compound: COc1cccc2c1C(=O)c1c(O)c3c(c(O)c1C2=O)C[C@@](O)(C(=O)CO)C[C@@H]3O[C@H]1C[C@H](N)[C@H](O)[C@H](C)O1 [Doxorubicin, reference compound]
Reply | 47.34%

Ref: paper PMC10873978
